Provenance of the data: patent US20250074911A1

# TARGET_SYSTEM: BTK T474S (Homo sapiens (Human), UniProt Q06187, T474S)
# Sequence (Q06187 whole entry T474S): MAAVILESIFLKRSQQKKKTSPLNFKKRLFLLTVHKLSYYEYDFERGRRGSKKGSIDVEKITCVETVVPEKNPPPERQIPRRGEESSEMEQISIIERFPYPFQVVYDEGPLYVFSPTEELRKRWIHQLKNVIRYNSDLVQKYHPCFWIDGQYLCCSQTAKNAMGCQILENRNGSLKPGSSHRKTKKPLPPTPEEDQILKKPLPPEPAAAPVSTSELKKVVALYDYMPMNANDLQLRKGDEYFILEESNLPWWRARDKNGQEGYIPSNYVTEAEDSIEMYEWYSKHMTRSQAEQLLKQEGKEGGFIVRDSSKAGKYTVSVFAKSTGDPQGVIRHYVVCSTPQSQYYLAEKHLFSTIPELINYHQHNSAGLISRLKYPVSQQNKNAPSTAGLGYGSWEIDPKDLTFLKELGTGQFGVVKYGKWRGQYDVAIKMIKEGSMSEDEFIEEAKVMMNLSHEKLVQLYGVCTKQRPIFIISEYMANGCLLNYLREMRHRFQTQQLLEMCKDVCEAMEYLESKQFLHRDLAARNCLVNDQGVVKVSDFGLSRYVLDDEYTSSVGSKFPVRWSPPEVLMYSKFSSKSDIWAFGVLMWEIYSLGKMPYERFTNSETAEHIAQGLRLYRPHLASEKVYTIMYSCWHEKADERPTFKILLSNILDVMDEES
# EXPERIMENT_NOTES: Binding kinetics measurements (Surface Plasmon Resonance) on BTK T474S
# CONDITIONS: SPR binding kinetics, BTK T474S; read-out: Tau (h) BTK T474S (Act); target residence time (converted)
Sorting guide: entries reporting residence time beneath 1 h go in the 1 (yes) pile, the rest go in the 0 (no) pile.

| COMPOUND | TARGET_SYSTEM | CLASSIFICATION |
| --- | --- | --- |
| Nc1ncc2n3c(nc(-c4ccc(C(=O)Nc5cc(C(F)(F)F)ccn5)cc4)c13)C1CCC[C@H](C1)NC(=O)CCC/C=C\C2 [Example 133b] | BTK T474S (Homo sapiens (Human), UniProt Q06187, T474S) | 0 (no) |
| CN1C/C=C/c2cnc(N)c3c(-c4ccc(C(=O)Nc5cc(C(F)(F)F)ccn5)cc4)nn(c23)[C@@H]2CCC[C@H](C2)NC(=O)C1 | BTK T474S (Homo sapiens (Human), UniProt Q06187, T474S) | 0 (no) |
| COc1ccc(F)cc1C(=O)NCc1ccc(-c2nn3c4c(cnc(N)c24)/C=C/COCC(=O)N[C@@H]2CCC[C@@H]3C2)cc1 | BTK T474S (Homo sapiens (Human), UniProt Q06187, T474S) | 0 (no) |
| Nc1ncc2c3c1c(-c1ccc(C(=O)Nc4cc(C(F)(F)F)ccn4)cc1)nn3[C@@H]1CCC[C@H](C1)NC(=O)CCCC/C=C/2 | BTK T474S (Homo sapiens (Human), UniProt Q06187, T474S) | 0 (no) |
| C[C@H]1CN(C2COC2)CCN1c1ccc(Nc2cc(-c3ccnc(N4CCn5c(cc6c5CC(C)(C)C6)C4=O)c3CO)cn(C)c2=O)nc1 [fenebrutinib, reference compound] | BTK T474S (Homo sapiens (Human), UniProt Q06187, T474S) | 1 (yes) |
| Nc1ncc2c3c1c(-c1ccc(C(=O)Nc4cc(C(F)(F)F)ccn4)cc1)nn3[C@@H]1CCC[C@H](C1)NC(=O)C1CCN1CC/C=C/2 (stereo partly drawn) | BTK T474S (Homo sapiens (Human), UniProt Q06187, T474S) | 0 (no) |
